assay: Cytotoxicity against human THLE3 cells assessed as reduction in cell viability after 48 hrs by Alamar blue assay; type: cell-based
Below, each entry is listed alongside its reported CC50 at 48 h.
EXPERIMENTAL ENDPOINT: CC50 at 48 h

>>> print(df.to_string())
                           structure_string  measured_value
0  O=S(=O)(Nc1ccc2oc(-c3ccccc3)nc2c1)c1cccc(O)c1           79 µM
1  O=S(=O)(Nc1ccc(-c2nc3ccccc3o2)cc1)c1ccccc1O           81 µM
2  O=S(=O)(Nc1ccc(-c2nc3ccccc3o2)cc1)c1cccc(C(F)(F)F)c1           82 µM
